Hi there, I'd appreciate the recorded Tmax for every entry that follows.
- protocol-summary: Pharmacokinetic study of seven phenolic acids in rat plasma after oral administration of E. purpurea extract (UHPLC-ESI-MS/MS)
- Type: in vivo
- assay-setup: Sprague-Dawley, rat, male SD rats, oral E. purpurea extract 10 g/kg, n = 12, mean ± SD
Numbers only, in h.

For record COc1cc(C(=O)O)ccc1O [Vanillic acid, vanillic acid] the listed Tmax is 0.75

For record COc1cc(C(=O)O)cc(OC)c1O [Syringic acid, syringic acid] the listed Tmax is 1.54

For record O=C(O)c1ccc(O)c(O)c1 [3,4-Dihydroxy benzoic acid, 3,4-dihydroxybenzoic acid] the listed Tmax is 0.77

Hi there! I need Tmax for each item below, if you can.
1. COc1cc(/C=C/C(=O)O)ccc1O [Ferulic acid, ferulic acid]
2. O=C(O)c1ccc(O)cc1 [4-Hydroxy benzoic acid, 4-hydroxybenzoic acid]
3. O=C(O)/C=C/c1ccc(O)cc1 [p-Coumaric acid, p-coumaric acid]
4. O=C(O)/C=C/c1ccc(O)c(O)c1 [Caffeic acid, caffeic acid]

A:
[8, 1.96, 0.75, 8]

* * *

- protocol-summary: Stability of the analytes in rat plasma QC samples under different storage conditions
- Format: physicochemical
- assay-setup: medium QC, −20 °C for 2 weeks, n = 6
Hi there, I'd appreciate the recorded Stability (RE%) Long-Term for every entry that follows.
Numbers only, in %.

# example entries with known answers
For record COc1cc(/C=C/C(=O)O)ccc1O [Ferulic acid, ferulic acid] the listed Stability (RE%) Long-Term is 6.80

For record O=C(O)/C=C/c1ccc(O)cc1 [p-Coumaric acid, p-coumaric acid] the listed Stability (RE%) Long-Term is −5.40

For record O=C(O)c1ccc(O)c(O)c1 [3,4-Dihydroxy benzoic acid, 3,4-dihydroxybenzoic acid] the listed Stability (RE%) Long-Term is 2.30

Hi there! I need Stability (RE%) Long-Term for each item below, if you can.
1. COc1cc(C(=O)O)cc(OC)c1O [Syringic acid, syringic acid]
2. O=C(O)/C=C/c1ccc(O)c(O)c1 [Caffeic acid, caffeic acid]
3. COc1cc(C(=O)O)ccc1O [Vanillic acid, vanillic acid]
4. O=C(O)c1ccc(O)cc1 [4-Hydroxy benzoic acid, 4-hydroxybenzoic acid]

A:
["−0.79", 1.00, "−0.37", 0.21]

* * *

- protocol-summary: Stability of the analytes in rat plasma QC samples under different storage conditions
- Format: physicochemical
- assay-setup: low QC, −20 °C for 2 weeks, n = 6
assay-readout: Stability (RE%) Long-Term
Give bare numbers, in %.

For record O=C(O)/C=C/c1ccc(O)c(O)c1 the listed Stability (RE%) Long-Term is 6.01

Hi there! I need Stability (RE%) Long-Term for each item below, if you can.
1. O=C(O)c1ccc(O)c(O)c1 [3,4-Dihydroxy benzoic acid, 3,4-dihydroxybenzoic acid]
2. COc1cc(C(=O)O)ccc1O
3. COc1cc(/C=C/C(=O)O)ccc1O
4. O=C(O)/C=C/c1ccc(O)cc1
5. COc1cc(C(=O)O)cc(OC)c1O
6. O=C(O)c1ccc(O)cc1 [4-Hydroxy benzoic acid, 4-hydroxybenzoic acid]

A:
1. −2.93
2. 2.91
3. 7.93
4. −6.75
5. −0.66
6. −3.31

* * *

Hi there, I'd appreciate the recorded Stability (RE%) Freeze-Thaw for every entry that follows.
- protocol-summary: Stability of the analytes in rat plasma QC samples under different storage conditions
- Format: physicochemical
- assay-setup: medium QC, three freeze-thaw cycles (−20 °C / ambient), n = 6
Answers are plain numbers, in %.

# example entries with known answers
For record O=C(O)c1ccc(O)c(O)c1 [3,4-Dihydroxy benzoic acid, 3,4-dihydroxybenzoic acid] the listed Stability (RE%) Freeze-Thaw is 6.57

For record O=C(O)/C=C/c1ccc(O)cc1 the listed Stability (RE%) Freeze-Thaw is −0.82

For record COc1cc(/C=C/C(=O)O)ccc1O the listed Stability (RE%) Freeze-Thaw is −3.80

For record O=C(O)/C=C/c1ccc(O)c(O)c1 the listed Stability (RE%) Freeze-Thaw is 2.18

For record O=C(O)c1ccc(O)cc1 [4-Hydroxy benzoic acid, 4-hydroxybenzoic acid] the listed Stability (RE%) Freeze-Thaw is 2.63

Hi there! I need Stability (RE%) Freeze-Thaw for each item below, if you can.
1. COc1cc(C(=O)O)ccc1O
2. COc1cc(C(=O)O)cc(OC)c1O

A:
1. 5.74
2. 4.48

* * *

- protocol-summary: Stability of the analytes in rat plasma QC samples under different storage conditions
- Assay type: physicochemical
- assay-setup: post-preparation samples, low QC, 12 h at 4 °C, n = 6
Hi there, I'd appreciate the recorded Stability (RE%) Post-Preparative for every entry that follows.
Numbers only, in %.

For record O=C(O)/C=C/c1ccc(O)cc1 [p-Coumaric acid, p-coumaric acid] the listed Stability (RE%) Post-Preparative is 8.52

For record O=C(O)c1ccc(O)c(O)c1 [3,4-Dihydroxy benzoic acid, 3,4-dihydroxybenzoic acid] the listed Stability (RE%) Post-Preparative is 9.29

For record COc1cc(C(=O)O)ccc1O [Vanillic acid, vanillic acid] the listed Stability (RE%) Post-Preparative is 9.11

For record COc1cc(/C=C/C(=O)O)ccc1O [Ferulic acid, ferulic acid] the listed Stability (RE%) Post-Preparative is −0.89

For record O=C(O)c1ccc(O)cc1 [4-Hydroxy benzoic acid, 4-hydroxybenzoic acid] the listed Stability (RE%) Post-Preparative is −6.42

Hi there! I need Stability (RE%) Post-Preparative for each item below, if you can.
1. O=C(O)/C=C/c1ccc(O)c(O)c1 [Caffeic acid, caffeic acid]
2. COc1cc(C(=O)O)cc(OC)c1O [Syringic acid, syringic acid]

A:
[10.35, "−10.74"]

* * *

Hi there, I'd appreciate the recorded Stability (RE%) Freeze-Thaw for every entry that follows.
- protocol-summary: Stability of the analytes in rat plasma QC samples under different storage conditions
- Type: physicochemical
- assay-setup: high QC, three freeze-thaw cycles (−20 °C / ambient), n = 6
Numbers only, in %.

Hi there! I need Stability (RE%) Freeze-Thaw for each item below, if you can.
1. O=C(O)c1ccc(O)cc1 [4-Hydroxy benzoic acid, 4-hydroxybenzoic acid]
2. O=C(O)/C=C/c1ccc(O)cc1
3. COc1cc(C(=O)O)ccc1O
4. O=C(O)/C=C/c1ccc(O)c(O)c1
5. O=C(O)c1ccc(O)c(O)c1 [3,4-Dihydroxy benzoic acid, 3,4-dihydroxybenzoic acid]

A:
1. −1.01
2. −8.78
3. 5.28
4. 6.15
5. −0.52

Hi there! I need Stability (RE%) Freeze-Thaw for each item below, if you can.
1. COc1cc(C(=O)O)cc(OC)c1O
2. COc1cc(/C=C/C(=O)O)ccc1O

A:
1: −2.61; 2: −13.12

* * *

- protocol-summary: Pharmacokinetic study of seven phenolic acids in rat plasma after oral administration of E. purpurea extract (UHPLC-ESI-MS/MS)
- Format: in vivo
- assay-setup: Sprague-Dawley, rat, male SD rats, oral E. purpurea extract 10 g/kg, n = 12, mean ± SD
assay-readout: half-life (h)
One number for each entry, in h.

For record O=C(O)/C=C/c1ccc(O)c(O)c1 the listed half-life is 5.31

For record COc1cc(/C=C/C(=O)O)ccc1O the listed half-life is 8.48

For record O=C(O)c1ccc(O)cc1 [4-Hydroxy benzoic acid, 4-hydroxybenzoic acid] the listed half-life is 14.9

For record O=C(O)c1ccc(O)c(O)c1 [3,4-Dihydroxy benzoic acid, 3,4-dihydroxybenzoic acid] the listed half-life is 7.45

For record O=C(O)/C=C/c1ccc(O)cc1 the listed half-life is 9.32

Further cases:
For record COc1cc(C(=O)O)cc(OC)c1O the listed half-life is 13.2

* * *

Hi there, I'd appreciate the recorded Stability (RE%) Post-Preparative for every entry that follows.
- protocol-summary: Stability of the analytes in rat plasma QC samples under different storage conditions
- Assay type: physicochemical
- assay-setup: post-preparation samples, medium QC, 12 h at 4 °C, n = 6
Answers are plain numbers, in %.

# example entries with known answers
For record O=C(O)c1ccc(O)c(O)c1 [3,4-Dihydroxy benzoic acid, 3,4-dihydroxybenzoic acid] the listed Stability (RE%) Post-Preparative is −5.47

For record COc1cc(C(=O)O)ccc1O the listed Stability (RE%) Post-Preparative is −6.34

For record O=C(O)c1ccc(O)cc1 [4-Hydroxy benzoic acid, 4-hydroxybenzoic acid] the listed Stability (RE%) Post-Preparative is 10.47

For record O=C(O)/C=C/c1ccc(O)cc1 the listed Stability (RE%) Post-Preparative is 11.50

For record COc1cc(C(=O)O)cc(OC)c1O the listed Stability (RE%) Post-Preparative is −7.64

For record COc1cc(/C=C/C(=O)O)ccc1O the listed Stability (RE%) Post-Preparative is 4.84

Further cases:
For record O=C(O)/C=C/c1ccc(O)c(O)c1 the listed Stability (RE%) Post-Preparative is 3.89

* * *

- protocol-summary: Pharmacokinetic study of seven phenolic acids in rat plasma after oral administration of E. purpurea extract (UHPLC-ESI-MS/MS)
- Type: in vivo
- assay-setup: Sprague-Dawley, rat, male SD rats, oral E. purpurea extract 10 g/kg, n = 12, mean ± SD
Note to self: AUC(0-t) under 3000 ng·h/mL means label 1, ties and anything higher get label 0.

Here's what some known entries look like.
Q: Item O=C(O)/C=C/c1ccc(O)c(O)c1 : AUC(0-t) beneath 3000 ng·h/mL, strictly?
A: label 0

Q: Item O=C(O)c1ccc(O)c(O)c1 [3,4-Dihydroxy benzoic acid, 3,4-dihydroxybenzoic acid] : AUC(0-t) beneath 3000 ng·h/mL, strictly?
A: label 1

Q: Item COc1cc(C(=O)O)cc(OC)c1O : AUC(0-t) beneath 3000 ng·h/mL, strictly?
A: label 1

Q: Item COc1cc(/C=C/C(=O)O)ccc1O : AUC(0-t) beneath 3000 ng·h/mL, strictly?
A: label 0

Q: Item O=C(O)c1ccc(O)cc1 [4-Hydroxy benzoic acid, 4-hydroxybenzoic acid] : AUC(0-t) beneath 3000 ng·h/mL, strictly?
A: label 1

Q: Item COc1cc(C(=O)O)ccc1O : AUC(0-t) beneath 3000 ng·h/mL, strictly?
A: label 0

Moving on to another compound below.
Q: Item O=C(O)/C=C/c1ccc(O)cc1 : AUC(0-t) beneath 3000 ng·h/mL, strictly?
A: label 0
